Origin of the recorded values: the RNAGym collection of RNA variant scans (doi:10.1093/molbev/msab373)

B1: Azoarcus group I ribozyme (parent)
chain: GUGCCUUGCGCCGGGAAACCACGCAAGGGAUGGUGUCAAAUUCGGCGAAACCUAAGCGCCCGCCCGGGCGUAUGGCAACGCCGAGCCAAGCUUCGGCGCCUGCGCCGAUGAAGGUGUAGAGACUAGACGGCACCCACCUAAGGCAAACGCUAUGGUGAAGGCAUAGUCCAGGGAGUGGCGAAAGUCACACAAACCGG

Variants of: B1
Assay: reverse-splicing fitness (ratio to wild type); higher = more active; in vitro selection; Mg2+ level not given
readout_type: reverse-splicing fitness

Below, each entry is followed by its recorded reverse-splicing fitness result.
variant | reverse-splicing fitness
C82G A111C C169G U176C | 0.0255
C82A A111U A120U C150G C169G U176G | 0.00289
C82U A111U A120C A145C C150G C169G U176C | 0.00632
C82U A111C A120C A145C C169U U176G | 0.00426
C82G A111G A120C A145C C150A C169U U176C | 0.0126

Input: Field request: reverse-splicing fitness | item: C82G A145C C150U C169U
Output: 0.00975

Input: Record request: reverse-splicing fitness value, item A111U A145G C150G C169U U176A
Output: 0.0111

Input: // returns reported reverse-splicing fitness for input C82A A111G A145G C150U U176A
Output: 0.115

Input: Item C82U A111U A120C A145C C150U C169U U176A has what recorded reverse-splicing fitness?
Output: 0.015

Input: Can you share its reverse-splicing fitness? I mean this variant: C82G A111G A120U C150A C169G U176G
Output: 0.00187

Input: Reported reverse-splicing fitness, variant C82U A111U A120C A145U C150U C169U U176C : ____
Output: 0.0157

Input: Given C82G A120C A145U C150A C169G U176A , state its recorded reverse-splicing fitness.
Output: 0.014
